TESTED_ON: full-length SHP2^WT (Homo sapiens)
Construct: Full-length SHP2 constructs were diluted in assay buffer; His6-TEV (N, cleaved yes)
Sequence (Q06124 1-593): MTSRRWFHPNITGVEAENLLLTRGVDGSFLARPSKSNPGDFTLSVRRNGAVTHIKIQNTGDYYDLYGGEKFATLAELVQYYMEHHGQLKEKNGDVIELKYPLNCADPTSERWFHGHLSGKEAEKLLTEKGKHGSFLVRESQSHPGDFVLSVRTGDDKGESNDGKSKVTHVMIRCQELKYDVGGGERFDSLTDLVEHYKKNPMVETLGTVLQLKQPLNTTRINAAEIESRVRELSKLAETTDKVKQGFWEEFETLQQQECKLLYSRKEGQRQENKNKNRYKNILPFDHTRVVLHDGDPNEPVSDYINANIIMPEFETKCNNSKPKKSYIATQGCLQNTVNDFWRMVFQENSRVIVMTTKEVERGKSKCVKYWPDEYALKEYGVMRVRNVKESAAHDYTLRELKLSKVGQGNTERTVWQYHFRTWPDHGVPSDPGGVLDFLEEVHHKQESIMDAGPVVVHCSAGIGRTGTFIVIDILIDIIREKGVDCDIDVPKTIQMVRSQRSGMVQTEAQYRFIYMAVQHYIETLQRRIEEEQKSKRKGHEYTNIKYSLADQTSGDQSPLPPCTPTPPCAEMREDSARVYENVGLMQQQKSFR
ASSAY_METHOD_TEXT: SHP2 activation assay using phosphopeptides (DiFMUP), SHP2 WT
SETUP_CONDITIONS: activation of full-length SHP2 WT (0.05 nM) by phosphopeptide; DiFMUP substrate; 60 mM HEPES pH 7.2, 75 mM KCl, 75 mM NaCl, 1 mM EDTA, 0.05% Tween-20, 0.5 mM TCEP; fluorescence read every 25 s for 6 min; mean of N (column N)
# EC50 listing for each entry below
State just the number; it will be interpreted in µM.

STRUCTURE_SMILES: CC[C@H](C)[C@H](NC(=O)[C@H](Cc1ccc(OP(=O)(O)O)cc1)NC(=O)[C@H](CC(N)=O)NC(=O)[C@H](CC(C)C)NC(=O)CNC(=O)[C@H](CC(N)=O)NC(=O)[C@H](CCC(=O)O)NC(=O)[C@H](CC(C)C)NC(C)=O)C(=O)N[C@@H](CC(=O)O)C(=O)N[C@@H](CC(C)C)C(=O)N[C@@H](CC(=O)O)C(=O)N[C@@H](CC(C)C)C(=O)N[C@H](C(N)=O)C(C)C
UNITS_OF_MEASURE: µM
EC50: 1.75

STRUCTURE_SMILES: CC[C@H](C)[C@H](NC(=O)[C@@H](NC(=O)[C@H](C)NC(=O)[C@H](Cc1ccc(OP(=O)(O)O)cc1)NC(=O)[C@H](CCC(=O)O)NC(=O)[C@@H](NC(=O)[C@H](CCC(N)=O)NC(=O)[C@H](CCC(=O)O)NC(=O)[C@@H]1CCCN1C(=O)[C@@H](NC(C)=O)C(C)C)[C@@H](C)O)[C@@H](C)O)C(=O)N[C@H](C(=O)N[C@@H](Cc1ccccc1)C(=O)N1CCC[C@H]1C(N)=O)C(C)C
UNITS_OF_MEASURE: µM
EC50: 5.37

Incoming: Identify measured EC50 associated with CC[C@H](C)[C@H](NC(=O)[C@H](CC(N)=O)NC(=O)[C@@H](NC(=O)[C@H](Cc1ccc(OP(=O)(O)O)cc1)NC(=O)[C@H](CCC(=O)O)NC(=O)CNC(=O)[C@@H]1CCCN1C(=O)[C@H](CO)NC(=O)[C@H](CCCCN)NC(=O)[C@@H]1CCCN1C(C)=O)C(C)C)C(=O)N[C@@H](CCC(=O)O)C(=O)N[C@@H](Cc1ccccc1)C(=O)NCC(N)=O
Outgoing: 29.3

Incoming: Identify measured EC50 associated with CC(=O)N[C@@H](CO)C(=O)N[C@H](C(=O)NCC(=O)N[C@@H](CO)C(=O)N[C@H](C(=O)N[C@@H](CC(=O)O)C(=O)N[C@@H](Cc1ccc(OP(=O)(O)O)cc1)C(=O)N[C@@H](CC(C)C)C(=O)N[C@@H](C)C(=O)N[C@@H](CC(C)C)C(=O)N[C@@H](CC(=O)O)C(=O)N[C@@H](Cc1ccccc1)C(=O)N[C@@H](CCC(N)=O)C(N)=O)C(C)C)[C@@H](C)O
Outgoing: 8.52

The reported numbers originate from paper doi:10.1101/2023.07.10.548257.
